# experimental_target: Fuc(a1-2)[Gal(a1-3)]Gal(b1-3)GlcNAc(b1-6)GalNAc
# test_details: glycan array binding signal (z-score within array); higher = stronger binding
# measurement_setup: glycan notation: IUPAC condensed, linker removed
Only a selection was taken, and the strongest signals are over-represented in it overall.
measured_metric: glycan array binding signal (z-score)
Format: numeric value only, no unit, no commentary.

Looking up EEA (Euonymus europaeus) (protein) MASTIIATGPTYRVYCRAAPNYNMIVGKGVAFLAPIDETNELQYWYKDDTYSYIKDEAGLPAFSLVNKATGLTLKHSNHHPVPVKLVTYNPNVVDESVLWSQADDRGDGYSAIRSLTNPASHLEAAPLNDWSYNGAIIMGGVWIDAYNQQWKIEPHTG , I see its glycan array binding signal (z-score) listed as 3.77

Looking up SP8524D-bot-399-27-399 (Bacteroides ovatus) (protein) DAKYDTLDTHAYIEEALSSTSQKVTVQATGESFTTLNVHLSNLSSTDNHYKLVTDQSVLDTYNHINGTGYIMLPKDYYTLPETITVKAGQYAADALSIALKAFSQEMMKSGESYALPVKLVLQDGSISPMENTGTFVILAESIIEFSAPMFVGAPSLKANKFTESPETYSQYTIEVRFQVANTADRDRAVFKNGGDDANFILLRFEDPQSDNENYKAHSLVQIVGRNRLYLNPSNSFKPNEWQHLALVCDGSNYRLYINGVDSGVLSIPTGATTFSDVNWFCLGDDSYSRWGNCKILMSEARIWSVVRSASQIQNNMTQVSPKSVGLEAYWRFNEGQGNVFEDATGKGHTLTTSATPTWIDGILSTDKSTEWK , I see its glycan array binding signal (z-score) listed as -0.387

Looking up Clec18A (Homo sapiens) (protein) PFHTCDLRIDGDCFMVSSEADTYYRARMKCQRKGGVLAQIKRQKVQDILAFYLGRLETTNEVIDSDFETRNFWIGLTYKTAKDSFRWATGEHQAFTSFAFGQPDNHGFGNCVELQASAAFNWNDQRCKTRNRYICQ , I see its glycan array binding signal (z-score) listed as 1.74

Looking up Drgal1 (Danio rerio) (protein) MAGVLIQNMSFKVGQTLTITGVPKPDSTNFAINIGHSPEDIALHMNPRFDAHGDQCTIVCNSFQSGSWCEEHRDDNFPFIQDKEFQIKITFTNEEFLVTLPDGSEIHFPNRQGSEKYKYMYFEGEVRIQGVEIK , I see its glycan array binding signal (z-score) listed as 0.084

Looking up DC-ASGPR L+GEE (Homo sapiens) (protein) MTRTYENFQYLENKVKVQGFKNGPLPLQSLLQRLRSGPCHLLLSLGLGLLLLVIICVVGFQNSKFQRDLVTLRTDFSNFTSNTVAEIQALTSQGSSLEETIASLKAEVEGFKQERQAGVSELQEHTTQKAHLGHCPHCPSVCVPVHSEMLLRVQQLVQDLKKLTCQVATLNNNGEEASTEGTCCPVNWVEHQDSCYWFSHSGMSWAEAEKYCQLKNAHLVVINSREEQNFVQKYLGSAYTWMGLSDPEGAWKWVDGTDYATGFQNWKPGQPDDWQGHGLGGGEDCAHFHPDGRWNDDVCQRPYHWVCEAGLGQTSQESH , I see its glycan array binding signal (z-score) listed as 2.67

Looking up Gal 9 (Homo sapiens), O00182 (protein) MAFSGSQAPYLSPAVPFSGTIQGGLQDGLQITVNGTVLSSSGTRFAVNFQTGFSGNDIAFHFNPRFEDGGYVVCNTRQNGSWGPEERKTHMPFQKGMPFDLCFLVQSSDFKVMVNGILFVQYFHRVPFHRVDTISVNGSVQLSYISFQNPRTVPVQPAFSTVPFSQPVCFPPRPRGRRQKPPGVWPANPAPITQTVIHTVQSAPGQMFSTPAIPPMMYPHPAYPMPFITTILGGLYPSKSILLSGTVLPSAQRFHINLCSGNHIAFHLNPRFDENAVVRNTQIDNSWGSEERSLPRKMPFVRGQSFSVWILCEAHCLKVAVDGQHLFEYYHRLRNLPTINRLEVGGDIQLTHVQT , I see its glycan array binding signal (z-score) listed as -0.233

Looking up Banana lectin (Musa acuminata) (protein) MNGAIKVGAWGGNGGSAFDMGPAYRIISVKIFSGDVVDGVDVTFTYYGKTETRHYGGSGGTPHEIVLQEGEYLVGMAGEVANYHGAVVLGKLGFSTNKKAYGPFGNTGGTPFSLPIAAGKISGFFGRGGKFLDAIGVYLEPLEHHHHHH , I see its glycan array binding signal (z-score) listed as -0.374

Looking up Jacalin (Artocarpus integrifolia) (protein) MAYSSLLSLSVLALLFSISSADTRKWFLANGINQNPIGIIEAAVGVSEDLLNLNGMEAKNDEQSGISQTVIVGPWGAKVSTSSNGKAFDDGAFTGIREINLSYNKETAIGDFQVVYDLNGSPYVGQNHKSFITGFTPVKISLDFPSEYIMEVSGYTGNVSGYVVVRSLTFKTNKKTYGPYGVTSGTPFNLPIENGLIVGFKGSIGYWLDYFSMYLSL , I see its glycan array binding signal (z-score) listed as -0.265

Looking up SP16663B-bot-321-25-321 (Bacteroides ovatus) (protein) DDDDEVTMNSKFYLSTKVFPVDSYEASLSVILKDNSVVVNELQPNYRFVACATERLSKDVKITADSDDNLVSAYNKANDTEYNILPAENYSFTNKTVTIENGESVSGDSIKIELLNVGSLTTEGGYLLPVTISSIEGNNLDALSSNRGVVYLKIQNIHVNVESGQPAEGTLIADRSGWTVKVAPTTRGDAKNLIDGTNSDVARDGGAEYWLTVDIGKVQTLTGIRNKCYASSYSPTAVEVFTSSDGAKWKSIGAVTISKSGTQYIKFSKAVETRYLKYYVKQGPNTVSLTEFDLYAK , I see its glycan array binding signal (z-score) listed as -0.437
